# Tested on: soybean (Glycine max)
# Assay info: Test B pre-/postemergence plant response
# Assay type: in vivo
# Experimental conditions: Postemergence, 250 g ai/ha; scale 0 to 100 (0 no effect, 100 complete control); 13 to 15 days
Value kind: Plant response rating, Soybean
Lab note: write the figure by itself, no unit.

Prompt: // returns reported Plant response rating, Soybean for input `O=C1CCCC(O)=C1C(=O)c1cnc(-c2ccccc2)n(C2CCOCC2)c1=O`
Response: 98

Prompt: // returns reported Plant response rating, Soybean for input COCCCn1c(-c2cc(F)cc(F)c2)ncc(C(=O)C2=C(O)C3CCC(C3)C2=O)c1=O (stereo not drawn)
Response: 100

Prompt: // returns reported Plant response rating, Soybean for input `CCc1cccc(-n2c(-c3ccccc3)ncc(C(=O)C3=C(O)CCCC3=O)c2=O)c1`
Response: 100

Prompt: // returns reported Plant response rating, Soybean for input `CCCn1c(-c2cccc(F)c2)ncc(C(=O)C2=C(O)CCCC2=O)c1=O`
Response: 98

Prompt: // returns reported Plant response rating, Soybean for input `O=C1CCCC(O)=C1C(=O)c1cnc(C2CC2)n(C2CCCCC2)c1=O`
Response: 98

Prompt: // returns reported Plant response rating, Soybean for input CCCCn1c(-c2ccccc2)ncc(C(=O)C2=C(O)C3CCC(C3)C2=O)c1=O (stereo not drawn)
Response: 100
